Below, IC50 values reported for human μ-calpain (Homo sapiens, UniProt P07384) across several publications.
Response field class: string, computed from recorded IC50 by ranges low = under 40 nM, medium = from 40 nM up to 100 nM, high = 100 nM and over

                                   compound  assigned_class
0  COc1ccc(C[C@H](NC(=O)[C@@H](NC(=O)CCCCC2CCS[S+]2[O-])C(C)C)C(=O)C(=O)O)cc1 (some centres unmarked)          medium
1  CCNC(=O)C(=O)C(CC)NC(=O)C(CC(=O)[C@@H](CC)c1ccccc1)CC(C)C (some centres unmarked)            high
2  CC(C)C[C@@H]1NC(=O)[C@@H](NC(=O)OCc2ccccc2)Cc2ccc(cc2)OCCCCC[C@@H](CO)NC1=O            high
3  CCNC(=O)C(=O)[C@H](Cc1ccc(OC)cc1)NC(=O)[C@H](CC(C)C)NC(=O)CCCCC1CCS[S+]1[O-] (some centres unmarked)             low
4  Cc1ccc(S(=O)(=O)CNC(=O)C(=O)[C@H](Cc2ccc(Cl)cc2)NC(=O)[C@@H](NC(=O)CCCCC2CCSS2)C(C)C)cc1 (some centres unmarked)            high

Ask: // bin(item) where item = CCNC(=O)C(=O)[C@H](Cc1ccc(Br)cc1)NC(=O)[C@H](CC(C)C)NC(=O)CCCCC1CCS[S+]1[O-] (some centres unmarked)
Reply: low

Ask: Any idea which band CCNC(=O)C(=O)[C@H](Cc1ccc(Cl)cc1)NC(=O)[C@@H](NC(=O)CNC(=O)CCCCC1CCSS1)C(C)C (some centres unmarked) is in?
Reply: low

Ask: Pick a category. Item: CCNC(=O)C(=O)[C@H](Cc1ccc([N+](=O)[O-])cc1)NC(=O)[C@H](CC(C)C)NC(=O)CCCCC1CCSS1 (some centres unmarked)
Reply: low

----------
Here is a set of molecules with reported pIC50 for human μ-calpain (Homo sapiens, UniProt P07384), compiled from the literature.
The quantity pIC50 is defined as the negative base-10 logarithm of the molar concentration.

Study these solved cases before continuing.
>>> print(df.to_string())
                                   molecule  measured
0  CC(C)CC(CC[S+]([O-])c1ccc2ccccc2c1)C(=O)N[C@H](C=O)CC(C)C (stereo partly drawn)      7.52
1  CCNC(=O)C(=O)[C@H](Cc1ccc(OC)cc1)NC(=O)[C@@H](NC(=O)c1cccc(NC(=O)CCCCC2CCSS2)c1)C(C)C (stereo partly drawn)      7.34

Field pIC50 (human μ-calpain (Homo sapiens, UniProt P07384)), entry CC(C)CC(CC(=O)[C@H](CC(C)C)NC(=O)OCc1ccccc1)C(=O)N[C@H](C=O)CC(C)C (stereo partly drawn) : 7.92
